- Target Entity: T1, human SIRPα v1 ECD recombinant protein (tag not given) (human, UniProt P78324 31-373)
- T1 construct: extracellular domain; also called biotin labeled soluble human SIRPα v1 ECD recombinant protein; ELISA microplate coated human SIRPα v1 ECD
- T1 sequence (P78324 31-373): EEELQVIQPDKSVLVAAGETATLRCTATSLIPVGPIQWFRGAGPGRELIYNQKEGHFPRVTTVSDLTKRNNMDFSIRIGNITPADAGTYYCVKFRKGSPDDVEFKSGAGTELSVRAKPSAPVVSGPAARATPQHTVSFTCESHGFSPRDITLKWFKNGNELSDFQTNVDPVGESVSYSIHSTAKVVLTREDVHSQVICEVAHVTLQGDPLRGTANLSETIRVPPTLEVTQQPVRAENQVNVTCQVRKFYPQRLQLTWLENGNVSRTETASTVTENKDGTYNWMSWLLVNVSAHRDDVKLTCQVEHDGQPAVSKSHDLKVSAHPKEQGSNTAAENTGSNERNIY
- Method: competitive ELISA, biotin human SIRPα v1 ECD on coated human CD47 ECD
Measured Endpoint: pIC50
Schema: pIC50 number; meaning minus log10 of the concentration expressed in molar units.

{"Binder": "059 (antibody, V domains shown, Mouse monoclonal hybridoma antibody; also called antibody 059; hybridoma antibody 059) VH: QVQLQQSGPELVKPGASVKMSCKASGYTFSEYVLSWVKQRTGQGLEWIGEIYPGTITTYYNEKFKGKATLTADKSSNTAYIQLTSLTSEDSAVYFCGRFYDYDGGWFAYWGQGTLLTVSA VL: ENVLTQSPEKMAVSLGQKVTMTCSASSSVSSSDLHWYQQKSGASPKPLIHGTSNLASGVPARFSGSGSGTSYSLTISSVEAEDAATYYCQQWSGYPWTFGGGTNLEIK", "pIC50": 9.92}

The measured pIC50 associated with 073 (antibody, V domains shown, Mouse monoclonal hybridoma antibody; also called antibody 073; hybridoma antibody 073) VH: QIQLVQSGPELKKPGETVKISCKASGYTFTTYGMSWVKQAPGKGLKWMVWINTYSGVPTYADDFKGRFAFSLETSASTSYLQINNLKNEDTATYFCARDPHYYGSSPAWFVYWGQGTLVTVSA VL: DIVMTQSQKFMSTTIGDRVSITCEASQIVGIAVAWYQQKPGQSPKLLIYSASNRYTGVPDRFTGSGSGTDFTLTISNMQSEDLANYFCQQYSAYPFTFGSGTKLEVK reads 9.80
